experiment: ROS scavenging activity, DCFDA assay, cell-free in vitro; details: SIN-1-induced oxidative stress
ENDPOINT: IC50 (µM)

I. Cc1c(C)c2c(c(C)c1O)CCC(C)(C(=O)O)O2 (stereo not shown) [Trolox, reference compound]
II. O=c1/c(=C/c2ccc(O)c(O)c2)sc2nc3ccccc3n12
Quick one: lower IC50, I or II ? Give the chosen item's label as your response.
II

====

ENDPOINT: melting point

Observe how each entry below is paired with its result.
• COc1cc(/C=c2\sc3nc4ccccc4n3c2=O)ccc1O = 262.3 to 264 °C
• O=c1/c(=C/c2ccc(O)c(O)c2)sc2nc3ccccc3n12 = ≥ 300 °C
• O=c1/c(=C/c2ccccc2O)sc2nc3ccccc3n12 = 244.2 to 245.2 °C
• COc1cc(/C=c2\sc3nc4ccccc4n3c2=O)cc(OC)c1OC = 215.1 °C

Could you now consider this next compound?
Using the record for COc1ccc(/C=c2\sc3nc4ccccc4n3c2=O)cc1O , state its measured melting point.
249.6 to 252.1 °C
